- ASSAY_REMARKS: NCI Yeast Anticancer Drug Screen. Data for the cln2 rad14 strain (AID 165);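 also: 0% = growth equal to vehicle treated cultures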
- SETUP_CONDITIONS: S. cerevisiae cln2 rad14 strain, at 50.0 µM, stronger effect = higher value
This is part of a sample that, as a whole, favours compounds with a hit. Of some 79,000 tested, about 15% had one in any assay.

[
  {
    "MOLECULE": "COC(=O)C(CC(=O)c1ccc2ccccc2c1)OC (stereo not given)",
    "UNIT_ANNOTATION": "%",
    "growth inhibition": -76.7
  },
  {
    "MOLECULE": "O=C1CC(CC(=O)c2ccc(Br)cc2)C(=O)/C1=C(/O)c1ccc(Br)cc1 (stereo not given)",
    "UNIT_ANNOTATION": "%",
    "growth inhibition": 38
  },
  {
    "MOLECULE": "CC1CCCCc2nc3c(c(=O)n21)CCCC3 (stereo not given)",
    "UNIT_ANNOTATION": "%",
    "growth inhibition": 0.25
  },
  {
    "MOLECULE": "CC1(C)OC2C(=O)OC(COCc3ccccc3)C2O1 (stereo not given)",
    "UNIT_ANNOTATION": "%",
    "growth inhibition": 11.1
  },
  {
    "MOLECULE": "CC(=O)c1ccc(N=Nc2ccc3nonc3c2N)cc1",
    "UNIT_ANNOTATION": "%",
    "growth inhibition": -10.2
  },
  {
    "MOLECULE": "CCOC(=O)/C(F)=C/c1ccc(C)cc1",
    "UNIT_ANNOTATION": "%",
    "growth inhibition": 11.1
  },
  {
    "MOLECULE": "Cc1cc(C)c2c(=O)cc(-c3cccc(F)c3)[nH]c2n1",
    "UNIT_ANNOTATION": "%",
    "growth inhibition": 3.8
  },
  {
    "MOLECULE": "Cc1ccc(C(C)C)cc1NC(=O)/C=C/c1ccccc1",
    "UNIT_ANNOTATION": "%",
    "growth inhibition": -15.2
  },
  {
    "MOLECULE": "Cn1c(=O)c2[nH]c(C3CCCCCC3)nc2n(C)c1=O",
    "UNIT_ANNOTATION": "%",
    "growth inhibition": -4.1
  },
  {
    "MOLECULE": "CC(C)=CC1C(CBr)C1(C)C (stereo not given)",
    "UNIT_ANNOTATION": "%",
    "growth inhibition": -26.2
  },
  {
    "MOLECULE": "CC(=O)Nc1ccc(S(=O)(=O)[N-]C2C(=O)c3ccccc3C(=O)C2[n+]2ccccc2)cc1 (stereo not given)",
    "UNIT_ANNOTATION": "%",
    "growth inhibition": -0.35
  },
  {
    "MOLECULE": "COc1cc(C#N)cc(OC)c1OC",
    "UNIT_ANNOTATION": "%",
    "growth inhibition": 1.45
  },
  {
    "MOLECULE": "C=C(C)CNCC(=C)C",
    "UNIT_ANNOTATION": "%",
    "growth inhibition": -16.8
  },
  {
    "MOLECULE": "O=C(O)[C@H]1C[C@H](O)CCN1",
    "UNIT_ANNOTATION": "%",
    "growth inhibition": 1.25
  },
  {
    "MOLECULE": "CCOC(=O)C/C(O)=C(\\N=Nc1nc[nH]c1C(N)=O)C(=O)OCC",
    "UNIT_ANNOTATION": "%",
    "growth inhibition": -1.8
  },
  {
    "MOLECULE": "CCCCN(CCCC)C(=Nc1ccccc1)N(CCCC)CCCC",
    "UNIT_ANNOTATION": "%",
    "growth inhibition": 10
  },
  {
    "MOLECULE": "NC(N)=NCCCCNCCCN=C(N)N",
    "UNIT_ANNOTATION": "%",
    "growth inhibition": 3.35
  },
  {
    "MOLECULE": "CC(C)CSC(SCC(C)C)C(O)C(O)C(O)CO (stereo not given)",
    "UNIT_ANNOTATION": "%",
    "growth inhibition": -35.2
  },
  {
    "MOLECULE": "COc1ccc(N=Nc2c(C)c(C#N)c(=S)n(C3OC(CO)C(O)C(O)C3O)c2-c2ccccc2)cc1 (stereo not given)",
    "UNIT_ANNOTATION": "%",
    "growth inhibition": 10.7
  },
  {
    "MOLECULE": "COc1ccc(CN2CCCN(Cc3ccc(OC)cc3OC)C2c2cc(OC)ccc2OC)c(OC)c1",
    "UNIT_ANNOTATION": "%",
    "growth inhibition": 10.5
  },
  {
    "MOLECULE": "CC(=O)OC(C)C(=O)OCCOc1ccccc1 (stereo not given)",
    "UNIT_ANNOTATION": "%",
    "growth inhibition": -36.6
  },
  {
    "MOLECULE": "COc1ccccc1NC(=O)C1=C(C)NC(C)=C(C(=O)Nc2ccccc2OC)C1c1c(Cl)cccc1Cl",
    "UNIT_ANNOTATION": "%",
    "growth inhibition": -6.05
  },
  {
    "MOLECULE": "O=C(Nc1ccccc1CCl)Nc1ccccc1CCl",
    "UNIT_ANNOTATION": "%",
    "growth inhibition": 0.7
  },
  {
    "MOLECULE": "COc1ccc(C(c2cc(OC)c(OC)c(OC)c2)N2C(=O)CCC2C(=O)O)cc1 (stereo not given)",
    "UNIT_ANNOTATION": "%",
    "growth inhibition": -11.8
  },
  {
    "MOLECULE": "CCSc1n[nH]c(=O)nc1NN",
    "UNIT_ANNOTATION": "%",
    "growth inhibition": -60
  }
]
